B1: F1*; the commonest letter at each place (parent)
chain: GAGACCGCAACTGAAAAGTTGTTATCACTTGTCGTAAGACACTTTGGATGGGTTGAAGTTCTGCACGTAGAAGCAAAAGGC

- Variants of: B1
- method-description: fraction ligated after 30 min (ligated reads / total reads); higher = more ligase activity
- experimental-setup: with F1*sub RNA substrate (template-directed ligation), 42 °C
Exercise: for every item that follows, state its recorded fraction ligated.
Please reply with the value in numeric form only.

Look at this variant and give its reported fraction ligated. G47C G55C
0.0788

Now the same for A24C G55T
0.0793

Now the same for T25G G47T
0.102

Now the same for T23C A57G
0.851

Now the same for G47T A48T
0.283

Now the same for T45C G47C
0.31

Now the same for A37C A39T
0.807

Now the same for T44G G46T
0.805

Now the same for A39T T44A
0.79

Now the same for T25A G47C
0.0196

Now the same for G38T A48G
0.792
